Answer each item with its documented GI50.
- Test system: M14
- assay: NCI tumour cell line growth inhibition, 48 h
Active and inactive are the calls of the source. Cut-off read from the data, not from the text of the source: active = GI50 up to about 1.1 µM and inactive = higher.

Give the measured GI50 of C=C(CC)C(=O)c1ccc(OCC(=O)O)c(Cl)c1Cl . 18.5 µM (inactive)

// lookup GI50 for COc1cccc(C2c3cc4c(cc3OC(Nc3ccccc3)C2C)OCO4)c1O (centres undefined) 3.84 µM (inactive)

Recorded GI50 of O=C(NCCN1CCOCC1)c1ccc2cc(C(=O)N3CC(CCl)c4ccc([N+](=O)[O-])cc43)[nH]c2c1 (centres undefined) , please. 7.38 µM (inactive)

Given COc1ccc(OC)c(CCc2ccccc2CC(=O)O)c1 , state its recorded GI50. > 100 µM (inactive)

Requested field: GI50. Item: Cc1cc(C)c(S(=O)(=O)N[C@@H](/C=C(\Br)CO)C(C)C)c(C)c1 30.5 µM (inactive)

Entry Cc1ccc(/N=C2\SC(=S)N(CCC[N+](C)(C)C)\C2=N/c2ccc(C)cc2)cc1 : reported GI50 = ? 21.1 µM (inactive)

Would you mind telling me what GI50 value was observed for COc1ccc(C(CC(=O)c2cccs2)C(=O)c2ccc3c(c2)OCO3)cc1 (centres undefined) ? > 100 µM (inactive)

Which value of GI50 has been reported for ClCc1nc2cc(Cl)ccc2o1 in the records? 4.31 µM (inactive)

Please look up its GI50: CC(C)CCC[C@@H](C)[C@H]1CC[C@H]2[C@@H]3CC[C@H]4C[C@H](N)CC[C@]4(C)[C@H]3CC[C@]12C 13.8 µM (inactive)

---

- Test system: NCI-H460
- assay: NCI tumour cell line growth inhibition, 48 h
The source made the active and inactive calls. Cut-off read from the data, not from the text of the source: active = GI50 up to about 1.1 µM and inactive = higher.
Choose one outcome from this list and give only that: active, inactive

For O=C1C(NCCc2ccc(O)c(O)c2)=CC(=O)c2ncccc21 , what call appears in the results of this test? inactive

I would be grateful if you could indicate the recorded call for O=C(Nc1nc2ccc([N+](=O)[O-])cc2[n+]([O-])n1)C(F)(F)F . inactive

Could you kindly confirm the outcome this assay logged for CCOC(=O)CCC(NC(=O)c1ccc(Nc2nc3cc(C(F)(F)F)ccc3nc2C(=O)OCC)cc1)C(=O)OCC (stereo not drawn) ? inactive

What was the test verdict on CCC12CCCN(Cc3ccccc3)C1c1c(n(C)c3ccccc13)C(C(=O)OC)C2 (stereo not drawn) ? inactive

Each compound tested received a call. Report the one for CCC[S+]([O-])c1nc(COC(=O)NC)c(COC(=O)NC)n1C (stereo not drawn) . inactive

Identify the outcome logged in this assay for the compound shown: C=C(C)/C=C/C(O)[C@](C)(O)[C@H]1[C@H](O)C[C@@]2(C)[C@@H]3CCc4c(cc(OC5OC(CO)C(O)C(O)C5O)c(O)c4C)C3(C)C(=O)C[C@]12C (stereo partly drawn) inactive

Per the assay record, what outcome was assigned to CC1=C(C)C(=O)OC(C(C)(O)C2(O)CC3OC34C3CC(O)C56OC5C=CC(=O)C6(C)C3CCC42C)C1 (stereo not drawn) ? inactive

Check the results log: what was the call for O=C(O)c1ccc(Nc2cnc3cc(C(F)(F)F)ccc3n2)cc1 ? inactive

What outcome does the record of this test show for Cc1ccccc1C1=C/C(=C(\SS/C(C(=O)c2ccc(OCC(=O)O)c(Cl)c2Cl)=C2\C=C(c3ccccc3C)SS2)C(=O)c2ccc(OCC(=O)O)c(Cl)c2Cl)SS1 ? inactive

I'd appreciate the recorded outcome for Cn1cnc(S[C@H]2[C@H]3C(=O)C=C4S[C@H]5C[C@]42C2=C(N5)C(=O)c4[nH]cc5c4C2=[N+]3CC5)c1C[C@H](N)C(=O)O from this test. inactive

Please let me know the test result on file for COC12OC3CC4(C)C(=CC3OC(OC(C)C1O)C2O)CCC1C4CCC2(C)C(c3ccc(=O)oc3)CCC12O (stereo not drawn) . active

Returns: the outcome recorded for CC1(C)CC(=O)C(CC2C(=O)CCCC2=O)C(=O)C1 in this assay. inactive

Recorded call for OCC1OC(OCC(O)C(O)C(O)C(/C=N/Nc2ccccc2)=N/Nc2ccccc2)C(O)C(O)C1O (stereo not drawn) ? inactive

State the result this test recorded for CO[C@@]12C[C@@H](C)[C@]34O[C@H]3C[C@]3(C)O[C@]43CC1=C(C)C(=O)O2 . inactive

So what was the verdict on O=S1(=O)C(c2ccccc2)C(N2CCCCC2)C1C1CC2c3ccccc3C1c1ccccc12 (stereo not drawn) in this test? inactive

Record lookup: outcome of this test for COC1C(C)OC(OC2CC(C)(O)Cc3cc4c(c(O)c32)C(=O)c2c(O)cc3c(c2C4=O)OC2OC3(C)C(O)C(N(C)C)C2O)C(OC)C1(C)OC (stereo not drawn) ? active

Record request — test call for Cc1cc2nc3c(C#N)c(C)c(CCCl)c(Cl)n3c2cc1C inactive

# fetch the recorded call for Cc1nc(C(N)=S)sc1C(/C=C/c1ccc(Cl)c(Cl)c1)=N/NC(C)(C)C here inactive
